# Test Details: inhibitors of CD8+ T cell-vesicle binding, pilot screen, LFA-1/ICAM-1 modulator project, MLPCN validation set, flow cytometry (AID 2523);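 further: mean PE anti-B7-1 fluorescence of CD8+ cells relative to row control; 100% = QL9-loaded vesicles with DMSO vehicle in the same plate row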
# Experimental Conditions: 2C mouse CD8+ T cells, at 7 µM, active compounds read low
Threshold-based label: vesicle binding response under 200% gives t, vesicle binding response not under 200% gives f.

CCOC(=O)C1C(=O)CC(C)(O)C(C(=O)OCC)C1/C=C/c1ccccc1 (stereo unspecified); t

IN: Check if vesicle binding response falls below 200% for C=C(C)c1nc2cc(OC)c(OC)cc2c(=O)o1 .
OUT: t

IN: Check if vesicle binding response falls below 200% for CC(C)OC(=O)CC1C(=O)NCCN1C(=S)NC(=O)c1ccccc1Cl (stereo unspecified) .
OUT: t

IN: Check if vesicle binding response falls below 200% for Cc1oc2c(CN3CCCC3)c(O)ccc2c(=O)c1-c1ccc(Cl)cc1 .
OUT: f

IN: Check if vesicle binding response falls below 200% for Cc1cccc(C2=N/C(=C\c3cccnc3)C(=O)O2)c1 .
OUT: t

IN: Check if vesicle binding response falls below 200% for CCOc1ccc(CC2c3cc(OCC)c(OCC)cc3CCN2C(=O)CN2CCN(C)CC2)cc1OCC (stereo unspecified) .
OUT: t

---

# Test Details: superoxide lowering in aged yeast cells, pilot screen, validation compound set (AID 2706);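 further: yeast exposed to compound for one week at 30 degrees C before staining; 100% = mean of all compound wells on the same plate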
# Experimental Conditions: S. cerevisiae aging, superoxide DHE fluorescence; at 10 µM, active compounds read low
Peptide text beside a SMILES is read from it. * marks the point of attachment. Boc = CC(C)(C)OC(=O)*
Item-by-item account of superoxide response (% of plate)
Give a bare numeral; the unit % is implied.

Observe how each entry below is paired with its result.
COc1ccc(-c2coc3cc(O)cc(O)c3c2=O)cc1; 106
CC(C)(C)OC(=O)N1CCCC1C(=O)NC(Cc1ccccc1)C(=O)O (stereo not drawn) (Boc-Pro-Phe-OH; configuration not given here); 92.5
O=C(OCC1OC2OC3(CCCCC3)OC2C2OC3(CCCCC3)OC12)c1ccccc1 (stereo not given); 102

IN: Quick one: superoxide response (% of plate) of Cc1ccc(-n2ncc3c(Nc4cccc(C(=O)O)c4)ncnc32)cc1 ?
OUT: 105

IN: Quick one: superoxide response (% of plate) of CCN(CC)CCOC(=O)C1(C2CCCCC2)CCCCC1 ?
OUT: 110

---

# Experimental Target: ATP-binding cassette sub-family B member 6 (Homo sapiens)
# Test Details: ABCB6 transporter inhibitors, pilot screen, K562-ABCB6 cells, flow cytometry, validation set (AID 588550);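 further: 0% = DMSO wells and 100% = benzethonium chloride 70 µM positive control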
# Experimental Conditions: K562-ABCB6 porphyrin accumulation, 1 h, at 10 µM, active compounds read high
Item-by-item account of inhibition
Give a bare numeral; the unit % is implied.

Observe how each entry below is paired with its result.
CN(C)c1ccc(O)c2c1CC1CC3[C@@H](N(C)C)C(=O)C(C(N)=O)=C(O)[C@]3(O)C(=O)C1=C2O (stereo partly specified); 6
CC(C)CC(=O)OC1C(N2CCOCC2)c2c(ccc(/C=C/C(=O)N3CCOCC3)c2O)OC1(C)C (stereo unspecified); 5
CC(C)c1ccccc1OCCNC(=S)NC(=O)c1cccnc1; 3

IN: Quick one: inhibition of COC(=O)c1cc(-c2c(C)oc3cc(OC)ccc3c2=O)c(C)o1 ?
OUT: 8

IN: Quick one: inhibition of O=C(Nc1ccc(Oc2c(F)c(F)c(F)c(F)c2F)cc1)OC1CCN2Cc3ccccc3N=C12 (stereo unspecified) ?
OUT: 1

IN: Quick one: inhibition of COc1ccc(C(=O)NC(=O)NC2(C(Cl)(Cl)Cl)OCCO2)cc1 ?
OUT: 9

IN: Quick one: inhibition of Cc1ccc2nc3c(cc(C(=O)NCC4CCCO4)c(=N)n3CCCOC(C)C)c(=O)n2c1 (stereo unspecified) ?
OUT: 14
